biological target: recombinant soluble homotrimeric HA of A/chicken/Vietnam/NCVD-016/08 (H5N1) (Influenza A virus A/chicken/Vietnam/NCVD-016/2008 (H5N1)); experiment: HA microarray, BCC supernatant; details: remark: other sources report otherwise
# reported Trimeric HA Binding RLU; entries follow
QUANTITY NAME: Trimeric HA Binding RLU (RLU)

BINDER | UNIT LABEL | OBSERVED MEASUREMENT
TCN-533 (5256_A17) (antibody, V domains shown) VH: QVQLVQSGADVKKPGSSVTVSCKASGGSFSNYGINWVRQAPGQGLEWMGGIIPLINAPNYAPKFQGRVTITADMFSNIVSLQLTSLRTDDTAVYYCARRKMTTAIDYWGQGTLVTVSS VL: QPVLSQPPSASASLGASVTLTCTLSSGFDNYQVAWYQQRPGKGPRFVMRVGNGGNVASKGDGIPDRFSVSGSGLNRYLTIKNIQEDDESDYYCGADHGSGNNFVSPYVFGGGTKLTVL | RLU | 47700
TCN-521 (3280_D18) (antibody, V domains shown) VH: EVQLVQSGGGLVQPGGSLRLACVVSGFTVTSNYITWVRQAPGKGLEWVSVIYSHGRAYYSASVNGRFTISRHTSKNTVYLEMNSLRPEDTAVYYCAGGGLVGGYDEYFFDYWGQGTLATVSS VL: ETVLTQSPGTLSLTPGERATLSCRVGQSVSGSHLAWYQQKPGQAPRLLIYGASSRATGIPDRFGGSVSGTDFTLTISRLEPEDSAVYYCQQYGDSRYTFGQGTKLEIK | RLU | 32400
TCN-544 (5082_A19) (antibody, V domains shown) VH: QVQLQESGPGLVKPSETLSLTCTVSRGSIGHYFWSWIRQPPGKGLEWIGYISYSGSTKYNPSLRSRVTISVDTSKNQFSLNLNSVTATDTALYYCAREDYDILTGAGPGMEVWGQGTTVTVSS VL: QSMLTQPPSASGTPGQRVTISCSGSSSNIGSNTVNWFKHLPGTAPKLLIYRNDLRPSGVPDRFSGSKSGTSASLAISGLQSEDEADYYCATWDDSLNGFYVFGTGTKVTVL | RLU | 272

Data provenance is patent US20150104459A1.
